Consider the following compounds; for each one, report its z-score.
# Measurement protocol: CREB reporter modulators under forskolin, primary screen, cell-based, PC12, CRE-LacZ reporter, forskolin-stimulated (AID 1146);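 note: PC12 cells with 6xCRE LacZ reporter stimulated by forskolin 10 µM; beta-galactosidase reporter signal reflecting CREB driven transcription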
# Recorded conditions: luminescence, 4.5 h, higher = more signal, called active from +8 up or from −8 down
Just the number.

input: Which z-score reading was recorded for the compound COc1ccc(-c2cc3c(c(CCc4ccccc4)n2)[Si](C(C)C)(C(C)C)OC3)cn1 ?
output: 0.307

input: Field entry: CCOC(=O)C1=CC[C@@H](c2cccc(Cl)c2)N(S(=O)(=O)c2ccc(C)cc2)C1
output: 0.132

input: Field entry: O=C1C2C=CC(C(O)c3ccccc3)N(Nc3ccccc3F)C2C(=O)N1c1ccccc1 (stereo not drawn)
output: 0.39

input: Field entry: CCOC(=O)C[C@H]1[C@H](OC(=O)c2cc3ccccc3oc2=O)[C@@H](NC(=O)c2ccc(-c3ccccc3)cc2)c2cc(OCCCO)ccc2N1C(=O)c1ccc2ccccc2n1
output: 0.644

input: Field entry: C=C(CCCC)/C(=C/C[C@@H](OC(=O)c1ccncc1)c1ccccc1OCCO)c1cnc2ccccc2c1
output: 0.689

input: Field entry: COc1ccc(CCNC(=O)[C@@H]2c3ccccc3C(=O)N(Cc3cc(C(F)(F)F)cc(C(F)(F)F)c3)[C@H]2c2ccc(CO)cc2)cc1
output: 0.632

input: Field entry: CC(C)[Si](C#C[Si](C(C)C)(C(C)C)C(C)C)(O[C@H](C)c1cn([C@H](CO)Cc2ccccc2)nn1)C(C)C
output: -0.531

input: Field entry: C=C(COC)/C(=C/C[C@H](OC(C)=O)c1ccc(OCCO)cc1)c1cc(C(=O)OC)ccc1OC
output: 0.696

----------
# Measurement protocol: HepG2 cell viability effects, profiling panel, calcein-AM fluorescence, 48 h, basal (AID 1164); note: test concentration not given here
# Recorded conditions: higher = more signal
Consider the following compounds; for each one, report its z-score.

input: Which z-score reading was recorded for the compound COCCOC(=O)N1C(=O)[C@@]2(c3cc(C#CC4=CCCCC4)ccc31)[C@H](C(N)=O)[C@H]1C(=O)O[C@H](c3ccccc3)[C@H](c3ccccc3)N1[C@@H]2c1ccccc1OCCO ?
output: -3.63

input: Field entry: COc1ccc(-c2nc(-c3ccccc3)c3c(c2C)CO[Si]3(C(C)C)C(C)C)cn1
output: -0.292

input: Field entry: C=CCN1Cc2ccccc2[C@H]2OC(c3ccc(OCCCO)cc3)=N[C@@]2(CC=C)C1=O
output: -0.121

input: Field entry: COCCOC(=O)N1C(=O)[C@@]2(c3cc(C#CC4=CCCCC4)ccc31)[C@H](c1ccc(OCCO)cc1)N1[C@H](c3ccccc3)[C@H](c3ccccc3)OC(=O)[C@H]1[C@@H]2C(=O)N1CCN(c2ncccn2)CC1
output: 0.47

----------
# Measurement protocol: binders of probe aFGF10 on microarray, primary screen, stem cell growth factor project, biochemical, small-molecule microarray, fluorescence 635/667 (AID 1071);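 note: score merges 667 nm spot intensity and signal to noise from triplicate slides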
# Recorded conditions: higher = more signal
Readout kind: composite z-score
Just the number.

input: Which composite z-score reading was recorded for the compound C[C@H]1NC(=O)[C@@]23C(=O)N[C@@H](Cc4ccccc4)C2[C@H](C)[C@@]2(C)O[C@H]2C3/C=C/C/C=C\CNC(=O)[C@H](Cc2ccccc2)NC1=O (some centres undefined) ?
output: 0.533

input: Field entry: COC(=O)c1c(CC[C@@H](CO)NC(=O)N2CCC[C@H]2Cn2cc(Cc3ccccc3)nn2)oc(C(C)=O)c1C(=O)OC
output: 0.325

input: Field entry: CCCCN1CC=CC23O[C@@H]4/C=C\CCC(C)OC(=O)C4[C@H]2C(=O)N(C(CO)C(C)C)[C@@H]3C1=O (some centres undefined)
output: 0.291

input: Field entry: O=C1C2C=CC(C(O)c3ccccc3)N(Nc3ccccc3F)C2C(=O)N1c1ccccc1 (centres undefined)
output: 0.373

----------
# Measurement protocol: basal HepG2 mitochondrial membrane potential changes, profiling panel, cell-based, JC-1 fluorescence, 24 h, 100 nL compound (AID 1167); note: test concentration not given here
# Recorded conditions: higher = more signal
Label rule, in plain words: z-score of 0.6 and up is true, under 0.6 is false.

input: Answer whether z-score of COc1cc(CO)cc(I)c1O[C@H]1C=C(C(=O)NCCO)C[C@@H](NCc2ccc(F)cc2)[C@@H]1O is greater than or equal to 0.6.
output: true

input: Field entry: O=C1NC(=O)C2C1C=CC(C(O)c1cccc3ccccc13)N2Nc1ccc(Cl)cc1Cl (stereo not drawn)
output: false

input: Field entry: NCCCCCNC(=O)[C@@H]1C[C@@H]2C(=O)NCC(=O)N2[C@@H]1c1cccc(OCCO)c1
output: true

input: Field entry: C=CCC(OC(C)=O)[C@@H]1[C@@H](N(Cc2cc3ccccc3o2)C(=O)c2ccc(-c3ccccc3)cc2)c2cc(OCCCO)ccc2N1C(=O)c1ccc2ccccc2c1 (stereo partly drawn)
output: true

input: Field entry: O=C(NCc1ccccc1)[C@@H]1c2ccccc2C(=O)N(Cc2ccccc2C(F)(F)F)[C@H]1c1ccc(CO)cc1
output: true

input: Field entry: C=CC1c2cc(O)c(OC)cc2CCN1Cc1cc2c(cc1Br)OCO2 (stereo not drawn)
output: false

input: Field entry: CC(C)[Si](C#CCCCC#N)(O[C@H](c1ccccc1)c1cn([C@H](CO)Cc2ccccc2)nn1)C(C)C
output: false

----------
# Target: Focal adhesion kinase 1 (Homo sapiens) (UniProt Q05397)
# Sequence (Q05397 whole entry, looked up): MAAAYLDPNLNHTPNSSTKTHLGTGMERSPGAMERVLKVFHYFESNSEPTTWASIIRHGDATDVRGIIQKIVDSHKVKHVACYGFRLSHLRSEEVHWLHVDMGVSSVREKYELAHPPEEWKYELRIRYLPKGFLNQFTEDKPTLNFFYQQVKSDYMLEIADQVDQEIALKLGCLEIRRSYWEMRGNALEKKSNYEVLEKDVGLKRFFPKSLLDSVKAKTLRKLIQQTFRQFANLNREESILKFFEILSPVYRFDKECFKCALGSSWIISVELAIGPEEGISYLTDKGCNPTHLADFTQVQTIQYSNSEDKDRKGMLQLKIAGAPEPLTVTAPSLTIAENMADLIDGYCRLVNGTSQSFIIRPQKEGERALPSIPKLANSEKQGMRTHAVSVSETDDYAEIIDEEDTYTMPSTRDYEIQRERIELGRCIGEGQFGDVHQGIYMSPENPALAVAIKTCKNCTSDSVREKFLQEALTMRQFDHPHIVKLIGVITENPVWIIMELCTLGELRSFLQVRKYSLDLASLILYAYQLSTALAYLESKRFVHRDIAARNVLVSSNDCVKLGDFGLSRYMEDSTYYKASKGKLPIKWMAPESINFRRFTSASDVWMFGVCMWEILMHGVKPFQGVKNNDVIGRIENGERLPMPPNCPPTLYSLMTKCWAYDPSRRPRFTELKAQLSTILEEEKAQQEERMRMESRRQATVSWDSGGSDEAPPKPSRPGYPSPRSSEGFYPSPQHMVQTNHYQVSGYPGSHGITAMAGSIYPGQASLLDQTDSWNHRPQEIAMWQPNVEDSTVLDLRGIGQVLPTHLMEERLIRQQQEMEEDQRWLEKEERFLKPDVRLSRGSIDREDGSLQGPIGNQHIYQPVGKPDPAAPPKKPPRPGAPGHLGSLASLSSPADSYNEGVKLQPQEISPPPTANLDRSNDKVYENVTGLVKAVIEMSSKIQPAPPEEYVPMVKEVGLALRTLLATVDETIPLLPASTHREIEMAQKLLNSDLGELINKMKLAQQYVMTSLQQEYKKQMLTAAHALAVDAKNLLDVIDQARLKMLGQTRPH
# Measurement protocol: small-molecule microarray binders of FAK, primary screen, biochemical, 635/667 nm fluorescence, BSA, DTT (AID 1130);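 note: composite of spot emission at 667 nm and signal to noise over triplicate slides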
# Recorded conditions: PTK2 binding, 635 nm fluorescence, higher = more signal
Readout kind: composite z-score
Just the number.

input: # returns recorded composite z-score (system: Focal adhesion kinase 1 (Homo sapiens) (UniProt Q05397)) for C=C(COC)C(=O)CC[C@@H](OC(=O)c1cccnc1)c1ccc(OCCO)cc1
output: -0.157

input: Field entry: O=C1NC(=O)C2C1C=CC(C(O)CCc1ccccc1)N2Nc1ccc(Cl)cc1Cl (configuration not stated)
output: 1.11

input: Field entry: CCC[C@@H]1C[C@@]1(CCC)[C@@H](NC(=O)OCc1ccccc1)c1ccc(-c2ccccc2)cc1
output: -0.278

input: Field entry: Cc1cc(C)c(C(O)C2C=CC3C(=O)NC(=O)C3N2Nc2ccc(Cl)cc2Cl)c(C)c1 (configuration not stated)
output: 0.941

input: Field entry: COc1ccc(-c2cc3c(c(CCc4ccccc4)n2)[Si](C(C)C)(C(C)C)OC3)cn1
output: -0.192

input: Field entry: COCCOC(=O)N1C(=O)[C@@]2(c3cc(C#CC4(O)CCCCCC4)ccc31)[C@H](c1ccc(O)cc1)N1[C@H](c3ccccc3)[C@H](c3ccccc3)OC(=O)[C@H]1[C@@H]2C(=O)NC[C@H](O)c1ccccc1
output: 0.987

input: Field entry: CCOC(=O)C[C@H]1[C@H](OC(=O)c2ccccc2-c2ccccc2)[C@@H](NC(=O)C2CCCCC2)c2cc(OCCCO)ccc2N1C(=O)Cc1ccc(OC)cc1
output: 0.559

----------
# Measurement protocol: E. coli acrAB mutant growth effects, primary screen, E. coli filamentation inducers, strain DRC39, OD650, 24 h (AID 1178);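 note: growth measured as culture turbidity by optical density at 650 nm; test concentration not given here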
# Recorded conditions: higher = more signal, called active from +8 up or from −8 down
Label rule, in plain words: z-score of 0.3 and up is met, under 0.3 is not met.

input: Answer whether z-score of C[N+](C)(C)CCCCCCNC(=O)[C@H]1C[C@H]2C(=O)N[C@@H](Cc3ccccc3)C(=O)N2[C@H]1c1ccc(O)cc1 is greater than or equal to 0.3.
output: met

input: Field entry: CCOC(=O)C[C@H]1[C@H](OC(=O)c2cc3ccccc3oc2=O)[C@@H](NC(=O)c2ccc(-c3ccccc3)cc2)c2cc(OCCCO)ccc2N1C(=O)c1ccc2ccccc2n1
output: met

input: Field entry: COC(=O)[C@@]1(Cc2ccccc2)[C@@H]2C(=CC(=O)[C@H]2CC(=O)C(=O)N(C)C)CN1C(=O)c1ccccc1
output: met

input: Field entry: C=CCC(OC(C)=O)[C@@H]1[C@@H](N(Cc2cccc3ccccc23)C(=O)Cc2ccc(OC)cc2)c2cc(OCCCO)ccc2N1C(=O)c1ccc2ccccc2n1 (stereo partly specified)
output: met

input: Field entry: C=CCC(OC(C)=O)[C@@H]1[C@@H](N(Cc2ccc(-c3ccccc3)cc2)C(=O)Cc2ccc(F)cc2)c2cc(OCCCO)ccc2N1C(=O)Cc1ccc(OC)cc1 (stereo partly specified)
output: not met

----------
# Tested on: Wnt5a (protein binding on small-molecule microarray)
# Measurement protocol: Wnt5a binders on small-molecule microarray, primary screen, biophysical, 635/667 nm fluorescence (AID 1142);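 note: fluorescence read at 667 nm with signal to noise per printed feature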
# Recorded conditions: 635 nm fluorescence, higher = more signal
Label rule, in plain words: composite z-score of -0.07 and up is met, under -0.07 is not met.

input: Answer whether composite z-score of O=C1O[C@H](c2ccccc2)[C@H](c2ccccc2)N2[C@H]1[C@@H](C(=O)Nc1nc3ccccc3s1)[C@]1(C(=O)Nc3ccc(C#CCCO)cc31)[C@H]2c1ccc(O)cc1 is greater than or equal to -0.07.
output: not met

input: Field entry: Cc1ccc(S[C@]2(C(=O)NCC(F)(F)F)CC(=O)N(Cc3ccccc3C(F)(F)F)[C@@H]2c2ccc(CO)cc2I)cc1
output: not met

input: Field entry: COc1ccc([Si](C)(C)[C@@H]2[C@@H](CC(=O)N3Cc4ccccc4C[C@H]3CO)O[C@]3(C(=O)N(Cc4cccc(N5C(=O)c6cccc7cccc5c67)c4)c4ccccc43)[C@H]2C)cc1
output: met

input: Field entry: CN(C)CCCNC(=O)[C@@]1(C)c2ccccc2C(=O)N(Cc2ccccc2)[C@H]1c1ccc(CO)cc1
output: met

input: Field entry: NC(=O)N1C(=O)C2C(C1=O)C1C=C(CCCO)C2C(c2cccs2)N1Cc1cccc(OC(F)(F)F)c1 (configuration not stated)
output: not met

input: Field entry: COc1cc(CO)cc(I)c1O[C@H]1C=C(C(=O)NCCO)C[C@@H](NCc2ccc(F)cc2)[C@@H]1O
output: met

input: Field entry: COC(=O)[C@@]1(Cc2ccc(OC)cc2)[C@H]2c3cc(C(=O)N4CCCC4)n(Cc4cccc5ccccc45)c3C[C@H]2CN1C(=O)c1ccccc1
output: met

Provenance of the data: PubChem BioAssay
